FYI, the data here is from PubChem BioAssay AID1963978.

System: 616215-338-R-J1-PDC spheroids with HUVEC/MSC, viability;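 also: spheroids exposed to agents for seven days before the viability read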
measurementNotes: Anticancer human tumor 616215-338-R-J1-PDC patient-derived colon adenocarcinoma cell line growth inhibition [PI3K]
details: second compound 0.1 µM; first compound 0.03 µM; stronger effect = lower value
Below, each entry is listed alongside its reported viability, T/C.
quantityName: viability, T/C (%)

>>> experimentalresult("Cn1cnc2c(F)c(Nc3ccc(Br)cc3Cl)c(C(=O)NOCCO)cc21 + CC(Nc1ccc2c(c1)OCCn1cc(N3C(=O)OCC3C(F)F)nc1-2)C(N)=O")
86.9
>>> experimentalresult("Cn1cnc2c(F)c(Nc3ccc(Br)cc3Cl)c(C(=O)NOCCO)cc21 + CC(Nc1ncnc2nc[nH]c12)c1cc2cccc(Cl)c2c(=O)n1-c1ccccc1")
96.5
>>> experimentalresult("Cn1cnc2c(F)c(Nc3ccc(Br)cc3Cl)c(C(=O)NOCCO)cc21 + COc1c(OCCCN2CCOCC2)ccc2c3n(c(=NC(=O)c4cnc(N)nc4)nc12)CCN3")
86.7
>>> experimentalresult("Cn1cnc2c(F)c(Nc3ccc(Br)cc3Cl)c(C(=O)NOCCO)cc21 + Cc1nc(NC(=O)N2CCCC2C(N)=O)sc1-c1ccnc(C(C)(C)C(F)(F)F)c1")
91.3
